test: Tmax in Beagle dog at 5 mg/kg, po measured upto 24 hrs by LC-MS analysis; assay type: ADME, organism-based, Canis lupus familiaris; settings: in vivo
Readout Kind: Tmax (h)
// note: answer is a bare numeric in h

Give a short answer stating reported Tmax for `O=C1CCN(c2cc(C(=O)N3CCC(CC4CCN(c5ccc(-c6cnc7[nH]cc(-c8cnn(CC(F)(F)F)c8)c7n6)cn5)CC4)CC3)ccc2Cl)C(=O)N1` .
2.67

====

test: Initial plasma concentration in C57BL/6J mouse at 2 mg/kg, iv measured upto 24 hrs by LC-MS analysis; format: ADME, organism-based
Readout Kind: C0 at 24 h (ng/mL)
Supply the numeric figure in ng/mL, leaving out any unit text.

Tell us which C0 at 24 h value is on record for `O=C1CCN(c2cc(C(=O)N3CCC(CC4CCN(c5ccc(-c6cnc7[nH]cc(-c8cnn(CC(F)(F)F)c8)c7n6)cn5)CC4)CC3)ccc2Cl)C(=O)N1`
1590

====

target: Protein cereblon/Mitogen-activated protein kinase kinase kinase kinase 1 (Homo sapiens, UniProt Q92918+Q96SW2); test: PROTAC activity at CRBN/HPK1 in human Jurkat cells incubated for 24 hrs by Western blotting analysis; type: cell-based
Sequence (Q92918 whole entry): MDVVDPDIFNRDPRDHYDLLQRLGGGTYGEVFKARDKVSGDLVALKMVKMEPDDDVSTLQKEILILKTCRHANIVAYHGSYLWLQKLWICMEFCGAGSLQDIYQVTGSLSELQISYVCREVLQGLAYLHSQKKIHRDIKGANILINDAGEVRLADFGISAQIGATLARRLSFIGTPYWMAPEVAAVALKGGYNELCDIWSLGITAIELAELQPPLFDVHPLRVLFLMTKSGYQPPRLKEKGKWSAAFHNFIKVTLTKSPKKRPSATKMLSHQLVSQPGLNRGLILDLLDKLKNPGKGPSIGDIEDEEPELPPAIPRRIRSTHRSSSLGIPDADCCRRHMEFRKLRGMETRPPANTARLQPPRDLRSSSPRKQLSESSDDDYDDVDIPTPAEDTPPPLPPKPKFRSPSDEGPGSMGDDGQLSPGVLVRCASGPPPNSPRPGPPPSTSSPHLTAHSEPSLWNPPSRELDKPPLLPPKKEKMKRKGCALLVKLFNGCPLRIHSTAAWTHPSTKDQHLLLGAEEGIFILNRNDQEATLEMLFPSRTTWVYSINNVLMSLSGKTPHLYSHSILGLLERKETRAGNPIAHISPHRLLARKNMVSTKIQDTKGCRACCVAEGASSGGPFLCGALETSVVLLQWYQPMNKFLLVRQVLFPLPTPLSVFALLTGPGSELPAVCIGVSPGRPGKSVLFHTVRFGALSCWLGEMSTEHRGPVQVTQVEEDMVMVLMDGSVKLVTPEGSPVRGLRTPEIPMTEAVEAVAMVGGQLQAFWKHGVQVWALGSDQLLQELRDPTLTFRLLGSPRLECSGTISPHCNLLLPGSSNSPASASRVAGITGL
Sequence (Q96SW2 whole entry): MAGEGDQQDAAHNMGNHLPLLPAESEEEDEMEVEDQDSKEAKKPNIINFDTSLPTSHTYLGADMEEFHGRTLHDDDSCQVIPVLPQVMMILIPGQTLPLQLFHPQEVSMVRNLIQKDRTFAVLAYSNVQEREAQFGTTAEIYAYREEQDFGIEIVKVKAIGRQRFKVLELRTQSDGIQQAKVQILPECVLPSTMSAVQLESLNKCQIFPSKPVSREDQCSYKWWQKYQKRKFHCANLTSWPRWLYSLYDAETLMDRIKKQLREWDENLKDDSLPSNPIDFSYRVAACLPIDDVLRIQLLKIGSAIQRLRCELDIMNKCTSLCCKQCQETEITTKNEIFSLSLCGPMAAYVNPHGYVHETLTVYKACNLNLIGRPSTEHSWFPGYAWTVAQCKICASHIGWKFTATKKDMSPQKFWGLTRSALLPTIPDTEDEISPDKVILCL
Readout Kind: log10 DC50 (log10 of the value in nM)
Plainly stated, the numbers are log10 of DC50 given in nM.

Take a look at these entries with their results.
Give recorded log10 DC50. `CC(C)(C#N)n1cc(-c2c[nH]c3ncc(-c4ccc(N5CCC(CC6CCN(C(=O)c7ccc(Cl)c(N8CCC(=O)NC8=O)c7)CC6)CC5)nc4)nc23)cn1`
2.33

Provide only the value of recorded log10 DC50 for `[2H]C([2H])([2H])n1cc(-c2c[nH]c3ncc(-c4ccc(N5CCC(CC6CCN(C(=O)c7ccc(Cl)c(N8CCC(=O)NC8=O)c7)CC6)CC5)nc4)nc23)cn1`
1.10

Specify measured log10 DC50 for `COCCn1cc(-c2c[nH]c3ncc(-c4ccc(N5CCC(CC6CCN(C(=O)c7ccc(Cl)c(N8CCC(=O)NC8=O)c7)CC6)CC5)nc4)nc23)cn1` .
1.49

Quote log10 DC50 reported for `CCN1CCC(n2cc(-c3c[nH]c4ncc(-c5ccc(N6CCC(CC7CCN(C(=O)c8ccc(Cl)c(N9CCC(=O)NC9=O)c8)CC7)CC6)c(F)c5)nc34)cn2)CC1` please.
2.25

Further cases:
Query log10 DC50 for `O=C1CCN(c2cc(C(=O)N3CCC(CC4CCN(c5ccc(-c6cnc7[nH]cc(-c8cnn(C(F)F)c8)c7n6)cn5)CC4)CC3)ccc2Cl)C(=O)N1`
1.38

====

test: Tmax in female Sprague-Dawley rat at 100 mg/kg/day, po measured at day 1; type: ADME, organism-based; conditions: in vivo, time 1 day
Readout Kind: Tmax

For `O=C1CCN(c2cc(C(=O)N3CCC(CC4CCN(c5ccc(-c6cnc7[nH]cc(-c8cnn(CC(F)(F)F)c8)c7n6)cn5)CC4)CC3)ccc2Cl)C(=O)N1` , write its Tmax.
8 h

====

assay: in vitro; conditions: rhesus monkey, liver microsomes
Readout Kind: half-life at 0.75 h, 1 µM (min)
Numeric answer only, unit min assumed.

Name the recorded half-life at 0.75 h, 1 µM of the item `O=C1CCN(c2cc(C(=O)N3CCC(CC4CCN(c5ccc(-c6cnc7[nH]cc(-c8cnn(CC(F)(F)F)c8)c7n6)cn5)CC4)CC3)ccc2Cl)C(=O)N1` in your answer.
36.4
